Sourced from patent US11643421B2

Experiment: Phase I dose-escalation study, plasma pharmacokinetics
Assay type: in vivo, human
Conditions: human, plasma; 30 mg single oral dose, Cycle 1 Day 1; read-out: Tmax (hr), Median
measurement_type: Tmax (h)
The reply should be a number in h, with the unit left off.

Tmax in this record for "CC1(C)OCCn2c1nc1c(N3CCOCC3)nc(-c3cnc(N)nc3)nc12" : 2

----------
Experiment: Phase I dose-escalation study, plasma pharmacokinetics
Format: in vivo, human
Conditions: human, plasma, oral; 20 mg once daily, multiple doses, Cycle 1 Day 15; read-out: Tmax (hr), Median
measurement_type: Tmax (h)
The reply should be a number in h, with the unit left off.

Tmax in this record for "CC1(C)OCCn2c1nc1c(N3CCOCC3)nc(-c3cnc(N)nc3)nc12" : 2

----------
Experiment: Phase I dose-escalation study, plasma pharmacokinetics
Type: in vivo, human
Conditions: human, plasma; 30 mg single oral dose, Cycle 1 Day 1; read-out: AUCinf (μM*hr), Mean
measurement_type: AUC(0-inf) (µM·h)
The reply should be a number in µM·h, with the unit left off.

AUC(0-inf) in this record for "CC1(C)OCCn2c1nc1c(N3CCOCC3)nc(-c3cnc(N)nc3)nc12" : 5.33

----------
Test: Phase I dose-escalation study, plasma pharmacokinetics
Type: in vivo, human
Details: human, plasma; 20 mg single oral dose, Cycle 1 Day 1; read-out: Tmax (hr), Median
measurement_type: Tmax (h)
The reply should be a number in h, with the unit left off.

Tmax in this record for "CC1(C)OCCn2c1nc1c(N3CCOCC3)nc(-c3cnc(N)nc3)nc12" : 2

----------
Assay: Phase I dose-escalation study, plasma pharmacokinetics;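 on Cmax: mean maximum plasma concentration Cmax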
Type: in vivo, human
Conditions: human, plasma, oral; 30 mg once daily, multiple doses, Cycle 1 Day 15
measurement_type: Cmax (µM)
The reply should be a number in µM, with the unit left off.

Cmax in this record for "CC1(C)OCCn2c1nc1c(N3CCOCC3)nc(-c3cnc(N)nc3)nc12" : 0.332

----------
Test: Phase I dose-escalation study, plasma pharmacokinetics;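 on Cmax: mean maximum plasma concentration Cmax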
Type: in vivo, human
Conditions: human, plasma, oral; 65 mg once daily, multiple doses, Cycle 1 Day 8
measurement_type: Cmax (µM)
The reply should be a number in µM, with the unit left off.

Cmax in this record for "CC1(C)OCCn2c1nc1c(N3CCOCC3)nc(-c3cnc(N)nc3)nc12" : 0.58

----------
Assay: Phase I dose-escalation study, plasma pharmacokinetics
Assay type: in vivo, human
Conditions: human, plasma, oral; 4 mg once daily, multiple doses, Cycle 1 Day 15; read-out: Tmax (hr), Median
measurement_type: Tmax

Tmax in this record for "CC1(C)OCCn2c1nc1c(N3CCOCC3)nc(-c3cnc(N)nc3)nc12" : 2 h

----------
Experiment: In vivo pharmacokinetics IV and PO
Design: species or system beagle dogs
Conditions: beagle, plasma; Dog, IV 1 mg/kg; read-out: Vss
measurement_type: Vd (L/kg)
The reply should be a number in L/kg, with the unit left off.

Vd in this record for CC1(C)OCCn2c1nc1c(N3CCOCC3)nc(-c3cnc(N)nc3)nc12 [GDC-0084] : 3

----------
Assay: Brain binding, dialysis of brain homogenate
Type: in vitro ADME
Settings: mouse brain homogenate, n=3, read-out: free fraction in brain tissues
measurement_type: fraction unbound at 4 h, 5 µM
// return just the number, without any unit appended

fraction unbound at 4 h, 5 µM in this record for CC1(C)OCCn2c1nc1c(N3CCOCC3)nc(-c3cnc(N)nc3)nc12 [GDC-0084] : 0.067
